The reported numbers originate from ChEMBL document CHEMBL1152777.

I'd appreciate it if you could supply pKd values for the items below.
target: UniProtKB P07900; test: Binding affinity to human recombinant Hsp90alpha N-terminal domain by isothermal titration calorimetry
Answers are plain numbers, as −log10 of the molar value.

CO[C@H]1C[C@H](C)Cc2cc(ccc2O)NC(=O)/C(C)=C/CC[C@H](OC)[C@@H](OC(N)=O)/C(C)=C/[C@H](C)[C@H]1O = 9.10
CO[C@H]1C[C@H](C)Cc2cccc(c2)NC(=O)/C(C)=C/CC[C@H](OC)[C@@H](OC(N)=O)/C(C)=C/[C@H](C)[C@H]1O = 8.27

Task: // fetch pKd given entry CO[C@H]1/C=C\C=C(/C)C(=O)Nc2ccc(O)c(c2)C[C@@H](C)C[C@H](OC)[C@H](O)[C@@H](C)/C=C(\C)[C@@H]1OC(N)=O
Output: 8.60
